Reference source for all entries: ChEMBL document CHEMBL3813625

Assay: Half life in cynomolgus monkey liver microsomes
Assay type: ADME, Macaca fascicularis
MEASURED ATTRIBUTE: half-life

Ask: Reported half-life, molecule CC(C)[C@@H]1CN(c2ccc(CO)c(S(C)(=O)=O)c2)CCN1c1ncc(CO)c(C(F)(F)F)n1 : ____
Reply: 10 min

###

Target: Mineralocorticoid receptor (Homo sapiens, UniProt P08235)
Sequence (P08235 whole entry): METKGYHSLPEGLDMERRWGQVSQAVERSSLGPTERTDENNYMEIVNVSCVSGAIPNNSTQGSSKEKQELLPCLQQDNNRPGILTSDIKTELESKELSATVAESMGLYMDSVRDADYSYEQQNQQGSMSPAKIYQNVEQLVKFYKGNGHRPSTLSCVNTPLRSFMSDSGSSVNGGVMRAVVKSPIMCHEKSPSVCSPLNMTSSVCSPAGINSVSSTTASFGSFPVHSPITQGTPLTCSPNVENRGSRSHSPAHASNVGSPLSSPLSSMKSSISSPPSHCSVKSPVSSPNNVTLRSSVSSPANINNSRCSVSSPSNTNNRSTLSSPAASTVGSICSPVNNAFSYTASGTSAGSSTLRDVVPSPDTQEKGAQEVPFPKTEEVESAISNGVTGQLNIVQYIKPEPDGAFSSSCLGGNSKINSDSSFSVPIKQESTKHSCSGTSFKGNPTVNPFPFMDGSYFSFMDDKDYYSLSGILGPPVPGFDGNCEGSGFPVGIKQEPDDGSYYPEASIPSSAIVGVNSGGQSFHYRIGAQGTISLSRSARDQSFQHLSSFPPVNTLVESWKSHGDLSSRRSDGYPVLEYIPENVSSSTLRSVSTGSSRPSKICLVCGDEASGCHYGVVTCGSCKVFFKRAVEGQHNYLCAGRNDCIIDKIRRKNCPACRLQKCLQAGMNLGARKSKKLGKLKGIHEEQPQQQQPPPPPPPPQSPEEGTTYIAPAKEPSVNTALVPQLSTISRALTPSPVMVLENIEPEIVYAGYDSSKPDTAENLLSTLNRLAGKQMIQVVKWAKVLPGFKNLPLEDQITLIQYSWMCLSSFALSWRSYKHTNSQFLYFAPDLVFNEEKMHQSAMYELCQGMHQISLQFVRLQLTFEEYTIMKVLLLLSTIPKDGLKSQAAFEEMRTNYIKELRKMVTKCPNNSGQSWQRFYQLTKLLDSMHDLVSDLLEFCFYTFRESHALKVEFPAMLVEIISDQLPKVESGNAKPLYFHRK
MEASURED ATTRIBUTE: IC50

Ask: Reported IC50, compound CC(C)[C@@H]1CN(c2ccc(CO)c(S(C)(=O)=O)c2)CCN1c1ncc(CO)c(C(F)(F)F)n1 : ____
Reply: > 10 µM

###

Target: Oxysterols receptor LXR-beta (Homo sapiens, UniProt P55055)
Sequence (P55055 whole entry, the tested form may be a part): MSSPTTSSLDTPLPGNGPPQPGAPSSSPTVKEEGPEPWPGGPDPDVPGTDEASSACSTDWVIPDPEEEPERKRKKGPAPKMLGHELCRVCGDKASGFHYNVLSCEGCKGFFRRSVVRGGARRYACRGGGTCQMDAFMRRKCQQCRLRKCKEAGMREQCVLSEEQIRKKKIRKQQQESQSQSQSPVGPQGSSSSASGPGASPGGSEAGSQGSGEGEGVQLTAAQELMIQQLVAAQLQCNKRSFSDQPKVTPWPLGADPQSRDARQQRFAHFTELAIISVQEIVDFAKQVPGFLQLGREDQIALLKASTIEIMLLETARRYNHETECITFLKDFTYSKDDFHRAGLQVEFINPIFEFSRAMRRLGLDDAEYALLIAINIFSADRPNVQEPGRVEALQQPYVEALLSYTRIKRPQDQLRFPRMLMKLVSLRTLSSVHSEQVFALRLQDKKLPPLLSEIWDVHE
Assay: Agonist activity at human LXRbeta by Gal4 assay
MEASURED ATTRIBUTE: EC50 (nM)
Give bare numbers, in nM.

Ask: Reported EC50, molecule O=C(O)Cc1cccc(OCCCN(Cc2cccc(C(F)(F)F)c2Cl)CC(c2ccccc2)c2ccccc2)c1 : ____
Reply: 390

###

Target: Oxysterols receptor LXR-beta (Homo sapiens)
Assay: Agonist activity at human LXRbeta ligand binding domain(155 to 460 residues) transfected in HEK293 cells after 16 hrs by Gal4-luciferase reporter gene assay
Assay type: cell-based
MEASURED ATTRIBUTE: EC50

Ask: Reported EC50, compound FC(F)(F)c1ccc(CN2CCN(c3ccccc3)CC2c2ccccc2)cn1 (stereo unspecified) : ____
Reply: > 20 µM
